protocolDetails: The equilibrium solubility exhibited in a fasted state-simulated intestinal fluid at pH 6.8
Type: ADME
reportedConditions: human, read-out: FS-SIF
measurementType: solubility thermodynamic (µg/mL)
Unit µg/mL implied. Number only.

> print(dat)
                                   compound  measuredvalue
1  CCCC[C@H](NC(=O)O[C@H](Cn1cnc(-c2ccc(C(F)(F)F)cc2)c1)C(C)(C)C)C(=O)C(=O)Nc1nccs1             48
2  CCCC[C@H](NC(=O)OC(Cc1nnc(-c2ccc(F)cc2)o1)C(C)(C)C)C(=O)C(=O)N[C@H]1CCCNC1=O (some centres not stated)            620

As a next step, examine the compound that follows.
For the compound "CCCC[C@H](NC(=O)O[C@H](Cc1nnc(-c2ccc(C(F)(F)F)cc2)o1)C(C)(C)C)C(=O)C(=O)NN1CCOC1=O" , what solubility thermodynamic is on record?
170

----------
protocolDetails: The equilibrium solubility exhibited in a fasted state-simulated intestinal fluid at pH 6.8
Type: ADME
reportedConditions: human
measurementType: solubility thermodynamic (µg/mL)
Answer format: numeric, µg/mL implied, no suffix.

What value of solubility thermodynamic has been reported for the following compound? "CCCC[C@H](NC(=O)O[C@H](Cn1ccc(-c2ccc(C(F)(F)F)cc2)n1)C(C)(C)C)C(=O)C(=O)NCc1ccno1"
180

----------
// reported pIC50 per item
targetOrSystem: Procathepsin L (Homo sapiens)
Sequence (P07711 whole entry): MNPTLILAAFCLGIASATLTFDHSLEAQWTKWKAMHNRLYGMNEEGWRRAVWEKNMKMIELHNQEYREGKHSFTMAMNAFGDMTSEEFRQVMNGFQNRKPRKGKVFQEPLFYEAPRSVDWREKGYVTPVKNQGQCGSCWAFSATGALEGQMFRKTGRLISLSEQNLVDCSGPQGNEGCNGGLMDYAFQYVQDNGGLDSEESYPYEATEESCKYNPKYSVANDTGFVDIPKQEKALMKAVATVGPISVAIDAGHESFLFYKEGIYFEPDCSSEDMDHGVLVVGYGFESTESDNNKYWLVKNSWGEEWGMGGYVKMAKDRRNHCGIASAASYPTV
pIC50 (log units): -log10 of the concentration in mol/L.

> print(dat)
                                  smilesstr  measuredvalue
1  CCCC[C@H](NC(=O)O[C@H](Cc1nnc(-c2ccc(F)cc2)o1)C(C)(C)C)C(=O)C(=O)N[C@H](C)c1ccccc1           4.48

// returns reported pIC50 for input "CCCC[C@H](NC(=O)O[C@H](Cc1nnc(-c2ccccc2)o1)C(C)(C)C)C(=O)C(=O)N[C@H](C)c1ccccc1"
5.00

For the compound "CCCC[C@H](NC(=O)O[C@H](Cc1nnc(-c2ccccc2)o1)C(C)(C)CC)C(=O)C(=O)N[C@H](C)c1ccccc1" , what pIC50 is on record?
4.77

What value of measured pIC50 is listed for "CCCC[C@H](NC(=O)O[C@H](Cc1nnc(-c2ccc(C(F)(F)F)cc2)o1)C(C)(C)C)C(=O)C(=O)Nc1ccn[nH]1" ?
4.16

----------
protocolDetails: The equilibrium solubility exhibited in a fasted state-simulated intestinal fluid at pH 6.8
Format: ADME
reportedConditions: human, read-out: FS-SIF
measurementType: solubility thermodynamic
Report as: number unit

> print(dat)
                                  smilesstr  measuredvalue
1  CCCC[C@H](NC(=O)O[C@H](Cn1ccc(-c2ccc(C(F)(F)F)cc2)n1)C(C)(C)C)C(=O)C(=O)Nc1ccccn1      380 µg/mL
2  CCCC[C@H](NC(=O)O[C@H](Cc1nnc(-c2ccc(F)cc2)o1)C(C)(C)C)C(=O)C(=O)Nc1ccn[nH]1       58 µg/mL
3  CCCC[C@H](NC(=O)O[C@H](Cc1nnc(-c2ccc(C(F)(F)F)cc2)o1)C(C)(C)C)C(=O)C(=O)Nc1ccn[nH]1       61 µg/mL

// moving on: another record for solubility thermodynamic
Any idea what its solubility thermodynamic is? The molecule is "CCCC[C@H](NC(=O)O[C@H](Cc1nnc(-c2ccc(F)cc2)o1)C(C)(C)C)C(=O)C(=O)NCc1cccnc1"
490 µg/mL
